All figures here come from patent US20140348834A1.

Target: cynomolgus monkey IL-17A (cynomolgus monkey, UniProt A0A2K5TTB0 24-155)
Sequence (A0A2K5TTB0 entry or part of it): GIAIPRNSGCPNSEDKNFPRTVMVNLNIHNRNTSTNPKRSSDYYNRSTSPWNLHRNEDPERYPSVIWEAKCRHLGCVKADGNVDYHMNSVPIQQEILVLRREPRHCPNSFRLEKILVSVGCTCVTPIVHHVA
Measurement protocol: cell-based or functional assay
Readout kind: Potency (pM), IL-17-driven IL-6 production in HS27 cells
Report the value in pM with no unit label.

Query block: Sample IL17-h10F7.15 (antibody, V domains shown, IgG; constant regions not specified) VH: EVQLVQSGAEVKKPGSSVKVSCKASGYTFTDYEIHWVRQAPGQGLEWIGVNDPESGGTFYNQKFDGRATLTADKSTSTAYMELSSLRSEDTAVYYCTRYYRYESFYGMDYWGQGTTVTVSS VL: EIVLTQSPSSLSASVGDRVTITCSASSSISYIYWFQQKPGKSPKRWIYATFELASGVPSRFSGSGSGTDYTLTISSLQPEDFATYYCHQRSSYPWTFGQGTKLEIKR — what was its Potency (pM), IL-17-driven IL-6 production in HS27 cells?
Result block: 499

Query block: Continue with IL17-h10F7.11 (antibody, V domains shown, IgG; constant regions not specified; also called h10F7.11 (VH.1a-Vk.2a)) VH: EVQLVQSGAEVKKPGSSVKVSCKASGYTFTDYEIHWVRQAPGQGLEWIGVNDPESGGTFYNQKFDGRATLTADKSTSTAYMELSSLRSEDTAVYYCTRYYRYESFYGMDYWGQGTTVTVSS VL: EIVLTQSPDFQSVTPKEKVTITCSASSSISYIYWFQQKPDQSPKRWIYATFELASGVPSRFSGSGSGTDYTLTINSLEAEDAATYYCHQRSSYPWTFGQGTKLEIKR
Result block: 622

Query block: Same thing, different binder: IL17-h10F7.13 (antibody, V domains shown, IgG; constant regions not specified) VH: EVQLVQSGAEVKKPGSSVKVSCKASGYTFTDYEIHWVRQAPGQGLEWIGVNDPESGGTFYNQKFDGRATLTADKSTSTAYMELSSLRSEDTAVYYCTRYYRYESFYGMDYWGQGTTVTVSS VL: QIVLTQSPSSLSASVGDRVTITCSASSSISYIYWFQQKPGKSPKRWIYATFELASGVPSRFSGSGSGTDYTLTISSLQPEDFATYYCHQRSSYPWTFGQGTKLEIKR
Result block: 429

Query block: Another: IL17-h10F7.17 (antibody, V domains shown, IgG; constant regions not specified) VH: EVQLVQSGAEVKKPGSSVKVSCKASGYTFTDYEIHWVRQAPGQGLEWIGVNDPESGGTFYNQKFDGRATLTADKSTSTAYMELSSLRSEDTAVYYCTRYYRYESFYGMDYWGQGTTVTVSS VL: QIVLTQSPDFQSVTPKEKVTITCSASSSISYIYWFQQKPDQSPKRWIYATFELASGVPSRFSGSGSGTDYTLTINSLEAEDAATYYCHQRSSYPWTFGQGTKLEIKR
Result block: 293

Query block: Next binder up: IL17-h10F7.6 (antibody, V domains shown, IgG; constant regions not specified; also called h10F7.6 (VH.1a-Vk.1a)) VH: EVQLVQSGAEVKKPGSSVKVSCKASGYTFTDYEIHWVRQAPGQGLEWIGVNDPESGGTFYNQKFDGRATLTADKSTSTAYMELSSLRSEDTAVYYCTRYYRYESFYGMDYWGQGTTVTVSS VL: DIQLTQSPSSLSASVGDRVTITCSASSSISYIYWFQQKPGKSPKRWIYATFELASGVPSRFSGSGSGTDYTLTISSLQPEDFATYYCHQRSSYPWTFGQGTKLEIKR
Result block: 313

Query block: Next binder up: m10F7hIgG1 (antibody, V domains shown) VH: QVQLQQSGAELVRPGTSVTLSCKASGYIFTDYEIHWVKQTPVHGLEWIGVNDPESGGTFYNQKFDGKAELTADKSSSTAYMELRSLTSEDSGVYYCTRYYRYESFYGMDYWGQGTSITVSS VL: QIVLTQSPAIMSASPGEKVTMTCSASSSISYIYWFQQKPGTSPKRWIYATFELASGVPARFSGSGSGTSYSLTISSMEAEDAATYYCHQRSSYPWTFGGGSKLEIKR
Result block: 79
